System: TK-10 renal
Assay: NCI-60 one-dose screen, 48 h (100 = growth as untreated, 0 = no growth, -100 = all killed)
Details: 10 µM unless noted
Description: Growth inhibition of the TK-10 human tumor cell line is measured as a screen for anti-cancer activity. Cells are grown in 96 well plates and exposed to the test compound for 48 hours. Compounds are tested at a single concentration, which is 10^-5 M for most compounds. The reported endpoint is percent growth (GI% or GIPRCNT), where numbers from 0 - 100% represent growth inhibition, and numbers from -100% - 0 represent cell death. For example, a value of 40 represents 60% growth inhibition. […]
This is part of a sample that, as a whole, favours compounds with a hit. Of some 83,000 tested, about 20% had one in any assay.
This section presents compounds with their documented growth values.
Kindly provide the numeric value in % only, without the unit symbol.

Record CN1C(=O)/C(=C\C(=O)c2cc3ccccc3oc2=O)c2ccccc21 , field growth: 98

###

system: DU-145 prostate; experiment: NCI-60 one-dose screen, 48 h (100 = growth as untreated, 0 = no growth, -100 = all killed); conditions: 10 µM unless noted
About 83,000 compounds went through this panel and 20% of them were active in at least one assay; those are over-represented in the sample as a whole.
Attribute Measured: growth (%)
Kindly provide the numeric value in % only, without the unit symbol.

Compound: CC(=O)Nc1ccc(S(=O)(=O)Nc2ccc(-c3ccc4c(c3)NC(=O)/C4=C\c3ccc[nH]3)cc2)cc1
Reading Unit: %
growth: 93.4
//
Compound: O=C(Cn1c(-c2ccccc2)nc2ccccc21)N=Nc1c(O)[nH]c2ccc(Cl)cc12
Reading Unit: %
growth: 6.32
//
Compound: O=C(OCCOCCO)N(c1cccc(Br)c1)c1nc(SCCN2CCOCC2)nc2c1cnn2CC(Cl)c1ccc(Br)cc1 (stereo not given)
Reading Unit: %
growth: 41.3
//
Compound: O=C1CCC(N2C(=O)c3cccc(NCCCCCC(=O)N4CCN(c5ccc6nc7c(nc6c5C(F)(F)F)C(=O)c5ncccc5C7=O)CC4)c3C2=O)C(=O)N1 (stereo not given)
Reading Unit: %
growth: -88.3
//
Compound: COc1cc(C2CC(c3ccc(F)cc3)=Nc3c(N)nc(N)nc3N2)ccc1Oc1nc(Nc2ccc(F)cc2)nc(N(C)C)n1 (stereo not given)
Reading Unit: %
growth: 55.8
//
Compound: O=C(N=Nc1c(O)[nH]c2ccc(Br)cc12)c1ccc2nc(-c3ccc(Cl)cc3)[nH]c2c1
Reading Unit: %
growth: -4.97

Record CN(C)c1nc(NCCNS(=O)(=O)c2ccc(C(=O)/C=C/c3ccc(C(F)(F)F)cc3)cc2)nc(N2CCOCC2)n1 , field growth: 3.39

Record O=C1N/C(=N\c2nccs2)S/C1=C\c1ccc([N+](=O)[O-])cc1 , field growth: 39.9

Record O=C(N/N=C/c1ccsc1)c1[nH]c2ccc(Br)cc2c1-c1ccccc1 , field growth: -26.4

Record Fc1ccccc1CNc1nc(SCCN2CCOCC2)nc2c1cnn2CC(Cl)c1ccc(Br)cc1 (stereo not given) , field growth: 60.5

Record COc1ccc(-c2cc(C(=O)N=Nc3c(O)[nH]c4ccc(Cl)cc34)c3ccccc3n2)cc1 , field growth: 19

Record COc1ccc(N=Nc2c(N)nn3c(N)c(C#N)c(-c4ccccc4)nc23)cc1 , field growth: 24.4

Record COc1ccc2[nH]cc(-c3cc4nc(-c5cn(C)c6ncc(Br)cc56)cc(N)n4n3)c2c1 , field growth: -70.7

Record Cc1[nH]nc2ccc3nc(-c4cn[nH]c4C(F)(F)F)c4c(c3c12)CCCC4 , field growth: 5.72

Record CC(C)(C)C(=O)c1c2c(c3ccc4c5ccccc5ccc4n13)C(=O)c1ccccc1C2=O , field growth: 95.6

Record COc1cc(CNC(=O)C[C@H](C)CCC=C(C)C)ccc1OCc1cn(-c2ccc(Cl)c(Cl)c2)nn1 , field growth: 76.8

Record COc1cc2cc(C(=O)N3C[C@@H](CCl)c4c3cc(OC(=O)N(CCC(=O)N3CCN(C)CC3)[C@H]3CCSSC3)c3ccccc43)[nH]c2c(OC)c1OC , field growth: -10.5

Record CS(=O)(=O)Nc1cc(-c2ccc3ncnc(Nc4ccc(OCc5cccnc5)c(Cl)c4)c3c2)cnc1Cl , field growth: 16.5

Record CCCCN1C(=O)/C(=C\C(=O)c2cc3ccccc3oc2=O)c2ccccc21 , field growth: 85.8

Record O=C(NN1C(=O)/C(=C/C=C/c2ccc([N+](=O)[O-])o2)SC1=S)c1ccc([N+](=O)[O-])cc1 , field growth: -100

Record COc1ccc(N=Nc2c(N)nn3c(-c4ccc([N+](=O)[O-])cc4)ccnc23)cc1 , field growth: 105

Record O=C(CSc1nnc(-c2ccc(-c3nc4ccc(Cl)cc4[nH]3)cc2)o1)Nc1ccc(Cl)cc1 , field growth: 6.16

Record O=C(c1ccc(O)cc1)C1[C@H](c2ccc(Cl)cc2)[C@@H](c2ccccc2)NC12C(=O)Nc1ccccc12 (stereo not given in full) , field growth: 20.5
